- Target Or Test System: Beta-secretase 1 (Homo sapiens)
- Sequence (P56817 whole entry): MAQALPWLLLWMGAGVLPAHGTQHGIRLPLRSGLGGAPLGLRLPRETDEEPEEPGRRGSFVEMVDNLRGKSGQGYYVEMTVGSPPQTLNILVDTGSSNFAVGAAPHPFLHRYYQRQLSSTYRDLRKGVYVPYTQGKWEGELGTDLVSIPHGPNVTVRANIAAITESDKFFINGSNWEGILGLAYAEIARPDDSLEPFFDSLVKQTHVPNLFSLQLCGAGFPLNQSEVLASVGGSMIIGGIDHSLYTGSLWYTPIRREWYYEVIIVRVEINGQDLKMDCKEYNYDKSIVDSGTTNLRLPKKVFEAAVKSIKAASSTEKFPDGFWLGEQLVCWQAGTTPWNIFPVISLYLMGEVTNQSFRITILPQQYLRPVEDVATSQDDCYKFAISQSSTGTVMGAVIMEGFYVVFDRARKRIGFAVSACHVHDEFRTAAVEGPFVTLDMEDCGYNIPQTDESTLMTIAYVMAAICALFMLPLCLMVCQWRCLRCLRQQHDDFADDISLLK
- Protocol Description: Inhibitory concentration against human Membrane-associated aspartic protease 2
Starred links: 1 amine or outer side, 2 acyl side, 3 side chain; linkers in the order of their positions; H or OH if unused. Non-standard residues stand in square brackets, D forms with d. Residues, ends and D or L forms follow the SMILES beside them. LeuΨ(S-CHOHCH2)Ala = CC(C)C[C@H](N[*:1])[C@@H](O)C[C@@H](C)C(=O)[*:2]; X1 = CC(C)C[C@H](N[*:1])[C@@H](O)[C@@H]1CCC[C@H]1C(=O)[*:2]
Recorded Metric: IC50 (nM)
One number for each entry, in nM.

Compound: CCCCNC(=O)[C@@H](NC(=O)[C@@H]1OCC[C@H]1[C@H](O)[C@H](CC(C)C)NC(=O)[C@H](CCSC)NC(=O)[C@H](CC(C)C)NC(C)=O)C(C)C
Unit Text: nM
IC50: 9560

Compound: CC(C)C[C@H](NC(=O)[C@H](CC(N)=O)NC(=O)[C@@H](NC(=O)[C@@H](N)CCC(=O)O)C(C)C)[C@@H](O)[C@@H]1CCC[C@H]1C(=O)N[C@@H](C)C(=O)N[C@@H](CCC(=O)O)C(=O)N[C@@H](Cc1ccccc1)C(=O)O [CARBOCYCLIC PEPTIDOMIMETIC] (H-EVN[X1]AEF-OH)
Unit Text: nM
IC50: 16

Compound: CC(C)C[C@H](NC(=O)[C@H](CC(N)=O)NC(=O)[C@@H](NC(=O)[C@@H](N)CCC(=O)O)C(C)C)[C@@H](O)C[C@@H](C)C(=O)N[C@@H](C)C(=O)O (H-EVN[LeuΨ(S-CHOHCH2)Ala]A-OH)
Unit Text: nM
IC50: 12

The following compounds each have a reported value; give each one's IC50.
1. CSCC[C@H](NC(=O)[C@H](CC(C)C)NC(C)=O)C(=O)N[C@@H](CC(C)C)[C@@H](O)[C@@H]1CCC[C@H]1C(=O)N[C@H](C(=O)O)C(C)C
2. CSCC[C@H](NC(=O)[C@H](CC(C)C)NC(C)=O)C(=O)N[C@@H](CC(C)C)[C@@H](O)[C@@H]1CC(=O)C[C@H]1C(=O)N[C@@H](C)C(=O)O
3. CCCCNC(=O)[C@@H]1CCC[C@H]1[C@H](O)[C@H](CC(C)C)NC(=O)[C@H](CCSC)NC(=O)[C@H](CC(C)C)NC(C)=O

[190, 720, 1820]

The following compounds each have a reported value; give each one's IC50.
1. CC(C)C[C@H](NC(=O)[C@H](CC(N)=O)NC(=O)[C@@H](NC(=O)[C@@H](N)CCC(=O)O)C(C)C)[C@@H](O)[C@@H]1CCC[C@H]1C(=O)N[C@@H](C)C(=O)N[C@@H](CCC(=O)O)C(=O)O (H-EVN[X1]AE-OH)
2. CSCC[C@H](NC(=O)[C@H](CC(C)C)NC(C)=O)C(=O)N[C@@H](CC(C)C)[C@@H](O)[C@@H]1CCC[C@H]1C(=O)N[C@@H](C)C(=O)O

[40, 60]

###

Cathepsin D (Homo sapiens, UniProt P07339) pIC50 data
Sequence (P07339 65-162 limits assumed): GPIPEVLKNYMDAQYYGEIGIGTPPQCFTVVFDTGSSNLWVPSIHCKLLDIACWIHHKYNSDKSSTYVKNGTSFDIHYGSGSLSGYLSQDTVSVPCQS
Sequence (P07339 169-412 limits assumed): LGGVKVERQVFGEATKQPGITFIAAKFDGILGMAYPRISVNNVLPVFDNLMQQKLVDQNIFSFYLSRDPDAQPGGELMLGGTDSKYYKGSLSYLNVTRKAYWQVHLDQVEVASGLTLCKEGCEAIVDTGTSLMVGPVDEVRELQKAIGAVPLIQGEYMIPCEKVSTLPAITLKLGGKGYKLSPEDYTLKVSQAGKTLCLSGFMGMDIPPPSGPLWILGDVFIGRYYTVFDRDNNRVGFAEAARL
Numbers only, as −log10 of the molar value.

Structure As Smiles: CSCC[C@H](NC(=O)[C@H](CC(C)C)NC(C)=O)C(=O)N[C@@H](CC(C)C)[C@@H](O)[C@@H]1CCC[C@H]1C(=O)N[C@@H](C)C(=O)O
Target Or Test System: Cathepsin D (Homo sapiens, UniProt P07339)
pIC50: 7.05

# evaluate next
CCCCNC(=O)[C@@H](NC(=O)[C@H]1[C@H]([C@H](O)[C@H](CC(C)C)NC(=O)[C@H](CCSC)NC(=O)[C@H](CC(C)C)NC(C)=O)CC(=O)N1C)C(C)C has a reported pIC50 of 7.15

These measurements were taken from ChEMBL document CHEMBL1145163.
